System: DU-145
method.description: Antiproliferative activity against human DU145 cells
Type: functional, cell-based
attribute.measured: pIC50
Give bare numbers, as −log10 of the molar value.

Problem: Consider the compound shown here: CCOC(=O)C1(C(=O)OCC)Cc2cc(OCc3ccccc3)cc(OCc3ccccc3)c2C=N1 What is its recorded pIC50?
Solution: 5.12

---

method.description: Acute toxicity in Wistar rat assessed as mortaliity topically applied to shaved dorsal skin as single dose for 24 hrs measured for 14 days
condition.info: in vivo, topical or ocular
attribute.measured: LD50 at 14 days

Problem: Consider the compound shown here: CCOC(=O)C1(C(=O)OCC)Cc2cc(OCc3ccccc3)cc(OCc3ccccc3)c2C=N1 What is its recorded LD50 at 14 days?
Solution: > 2000 mg/kg

---

method.description: Selectivity index, ratio of IC50 for human MCF10 cells to IC50 for human MCF7 cells
Format: toxicity
condition.info: MCF10 cells versus MCF7 cells, read-out: Ratio IC50
attribute.measured: selectivity ratio

Problem: Consider the molecule shown here: CCOC(=O)C1(C(=O)OCC)Cc2cc(OCc3ccccc3)cc(OCc3ccccc3)c2C=N1 What is its recorded selectivity ratio?
Solution: 4 to 8

---

method.description: Selectivity index, ratio of IC50 for mouse BALB/3T3 cells to IC50 for human MCF7 cells
Format: toxicity
condition.info: BALB/3T3 cells versus MCF7 cells, read-out: Ratio IC50
attribute.measured: selectivity ratio
Give bare numbers.

Problem: Consider the compound shown here: CCOC(=O)C1(C(=O)OCC)Cc2cc(OCc3ccccc3)cc(OCc3ccccc3)c2C=N1 What is its recorded selectivity ratio?
Solution: 3.7

---

method.description: Selectivity index, ratio of IC50 for mouse BALB/3T3 cells to IC50 for human LoVo cells
Type: toxicity
condition.info: BALB/3T3 cells versus LoVo cells, read-out: Ratio IC50
attribute.measured: selectivity ratio
One number for each entry.

Problem: Consider the compound shown here: CCOC(=O)C1(C(=O)OCC)Cc2cc(OCc3ccccc3)cc(OCc3ccccc3)c2C=N1 What is its recorded selectivity ratio?
Solution: 32.6

---

System: HL60/MX2
method.description: Antiproliferative activity against human HL60/MX2 cells after 72 hrs by MTT assay
Type: functional, cell-based
condition.info: HL60/MX2, 72 h
Kindly supply the reported IC50 values for the records listed here.
Give bare numbers, in µM.

>  <molecule>
O=C(O)C1Cc2c(O)c(O)cc(Br)c2C=N1 (stereo not drawn)

>  <attribute.measured>
IC50

>  <numeric.result>
247

$$$$
>  <molecule>
O=C(O)C1Cc2cc(O)c(O)c(O)c2C=N1 (stereo not drawn)

>  <attribute.measured>
IC50

>  <numeric.result>
149

$$$$

With those in mind, consider the next molecule.
Problem: Consider the molecule shown here: CCOC(=O)C1(C(=O)OCC)Cc2cc(OCc3ccccc3)cc(OCc3ccccc3)c2C=N1 What is its recorded IC50?
Solution: 5.1

---

method.description: Selectivity index, ratio of IC50 for mouse BALB/3T3 cells to IC50 for human Raji cells
Format: toxicity
condition.info: BALB/3T3 cells versus Raji cells, read-out: Ratio IC50
attribute.measured: selectivity ratio
Give bare numbers.

Problem: Consider the compound shown here: CCOC(=O)C1(C(=O)OCC)Cc2cc(OCc3ccccc3)cc(OCc3ccccc3)c2C=N1 What is its recorded selectivity ratio?
Solution: 59.8

---

method.description: Selectivity index, ratio of IC50 for mouse BALB/3T3 cells to IC50 for human HCV29T cells
Format: toxicity
condition.info: BALB/3T3 cells versus HCV29T cells, read-out: Ratio IC50
attribute.measured: selectivity ratio

Problem: Consider the molecule shown here: CCOC(=O)C1(C(=O)OCC)Cc2cc(OCc3ccccc3)cc(OCc3ccccc3)c2C=N1 What is its recorded selectivity ratio?
Solution: 4.1
